molecular target: Sigma intracellular receptor 2 (Rattus norvegicus, UniProt Q5U3Y7); assay: Displacement of [3H]-DTG from Sprague-Dawley rat liver sigma 2 receptor incubated for 120 mins by liquid scintillation counting method
Sequence (Q5U3Y7 whole entry): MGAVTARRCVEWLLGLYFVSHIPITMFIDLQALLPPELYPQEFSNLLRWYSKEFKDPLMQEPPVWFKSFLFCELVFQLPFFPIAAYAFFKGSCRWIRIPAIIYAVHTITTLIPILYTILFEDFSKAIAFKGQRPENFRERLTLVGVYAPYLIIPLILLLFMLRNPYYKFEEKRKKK
Measurement Name: Ki (nM)

(a) c1ccc2c(c1)CCO[C@@]21CCC[C@H](NCC2CCCCC2)C1 (relative stereo)
(b) c1ccc(CN[C@H]2CCC[C@]3(C2)OCCc2ccccc23)cc1 (relative stereo)
Kindly compare a with b and tell me which has the lower Ki figure. Respond with the label that goes with your answer.
a
(a: 60 nM, b: 340 nM)

* * *

target: UniProtKB P41145
Sequence (P41145 whole entry): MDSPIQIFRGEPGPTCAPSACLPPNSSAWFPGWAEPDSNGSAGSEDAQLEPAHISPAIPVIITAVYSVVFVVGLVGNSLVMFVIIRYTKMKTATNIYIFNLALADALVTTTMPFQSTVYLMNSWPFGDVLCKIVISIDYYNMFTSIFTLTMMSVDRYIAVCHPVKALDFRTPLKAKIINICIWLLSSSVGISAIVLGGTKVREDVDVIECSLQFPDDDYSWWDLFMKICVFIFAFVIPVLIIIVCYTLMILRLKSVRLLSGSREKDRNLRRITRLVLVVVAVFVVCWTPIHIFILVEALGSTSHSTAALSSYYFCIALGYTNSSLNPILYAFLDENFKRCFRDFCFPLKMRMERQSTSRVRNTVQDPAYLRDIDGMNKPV
Measurement Name: pKi
pKi here: minus log base 10 of the concentration, concentration in moles per litre.

Sample c1ccc2c(c1)CCO[C@@]21CCC[C@H](NCC2CCCCC2)C1 (relative stereo) — what was its pKi?
6.39

* * *

molecular target: Sigma non-opioid intracellular receptor 1 (Cavia porcellus, UniProt Q60492); assay: Displacement of [3H]-pentazocine from guinea pig brain sigma 1 receptor incubated for 120 mins by liquid scintillation counting method
Sequence (Q60492 whole entry): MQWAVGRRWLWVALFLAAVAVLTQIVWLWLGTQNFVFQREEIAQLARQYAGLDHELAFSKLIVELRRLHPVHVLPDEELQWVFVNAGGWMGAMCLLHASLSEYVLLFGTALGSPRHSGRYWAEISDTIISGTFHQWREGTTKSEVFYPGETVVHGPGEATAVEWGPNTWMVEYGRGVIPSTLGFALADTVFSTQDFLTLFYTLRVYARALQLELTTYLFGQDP
pKi: −log10 of the molar value.
Measurement Name: pKi

Below, each entry is followed by its recorded pKi result.
| Compound | pKi |
| --- | --- |
| c1ccc(CN[C@H]2CCC[C@]3(C2)OCCc2ccccc23)cc1 (relative stereo) | 7.02 |
| CN(CC1CCCCC1)[C@H]1CCC[C@]2(C1)OCCc1ccccc12 (relative stereo) | 7.82 |

(P) CN(Cc1ccccc1)[C@H]1CCC[C@]2(C1)OCCc1ccccc12 (relative stereo)
(Q) c1ccc2c(c1)CCO[C@@]21CCC[C@H](NCC2CCCCC2)C1 (relative stereo)
Lab log: flag the item ( P or Q ) with the smaller pKi figure. Answer format: the label of the selected item.
P
(P: 6.56, Q: 8.27)

* * *

molecular target: Delta-type opioid receptor (Homo sapiens, UniProt P41143); assay: Binding affinity to DOR (unknown origin)
Sequence (P41143 whole entry): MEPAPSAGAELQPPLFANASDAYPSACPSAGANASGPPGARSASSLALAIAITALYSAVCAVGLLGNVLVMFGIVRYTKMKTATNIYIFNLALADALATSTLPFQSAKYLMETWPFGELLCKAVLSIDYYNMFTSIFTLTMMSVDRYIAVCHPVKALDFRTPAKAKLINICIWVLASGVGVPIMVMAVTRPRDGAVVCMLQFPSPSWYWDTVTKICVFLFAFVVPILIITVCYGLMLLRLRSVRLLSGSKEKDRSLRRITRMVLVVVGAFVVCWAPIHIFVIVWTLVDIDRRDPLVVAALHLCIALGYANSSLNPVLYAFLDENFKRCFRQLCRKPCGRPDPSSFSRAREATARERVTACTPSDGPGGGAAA
Measurement Name: Ki (nM)
Write the value in nM as a bare number.

Which measured Ki belongs to c1ccc2c(c1)CCO[C@@]21CCC[C@H](NCC2CCCCC2)C1 (relative stereo) , tested on Delta-type opioid receptor (Homo sapiens, UniProt P41143)?
150

These data points were gathered from ChEMBL document CHEMBL4673196.
